# IC50 per entry for α7-subtype of nicotinic receptors (Rattus norvegicus)
Write it as a number; the unit µM goes unstated.

Cl.O=C(Nc1ccc(OC(=O)N2CCN3CCC2CC3)cc1)c1ccccc1 0.56

Query string: Respond only with IC50 recorded for O=C(O)/C=C/C(=O)O.O=C(Oc1ccc(C#Cc2ccccc2)cc1)N1CCN2CCC1CC2
Result string: 0.42

Sourced from patent US20090075983A1
